# Procedure text: In vitro dissolution test of Drug 2 compositions in PBS pH 6.5 (microcentrifuge method, HPLC)
# Type: physicochemical
# Cond: Table 4; time 4 min; PBS pH 6.5, 37° C.
Readout: AUC (ng·h/mL)
Only the number, expressed in ng·h/mL, is required.

Ask: Entry O=C(N[C@@H](Cc1ccccc1)[C@@H](O)C(=O)N1C[C@@H](O)[C@@H](O)C1)c1cc2cc(Cl)ccc2[nH]1 has what AUC?
Result: 5000

###

# Procedure text: In vitro dissolution test of Drug 2 compositions in PBS pH 6.5 (microcentrifuge method, HPLC)
# Format: physicochemical
# Cond: Table 4; time 0 min; PBS pH 6.5, 37° C.
Readout: AUC (ng·h/mL)
Only the number, expressed in ng·h/mL, is required.

Ask: Entry O=C(N[C@@H](Cc1ccccc1)[C@@H](O)C(=O)N1C[C@@H](O)[C@@H](O)C1)c1cc2cc(Cl)ccc2[nH]1 [Example C4] has what AUC?
Result: 0

###

# Procedure text: In vitro dissolution test of Drug 2 compositions in PBS pH 6.5 (microcentrifuge method, HPLC)
# Format: physicochemical
# Cond: Table 4; time 1200 min; PBS pH 6.5, 37° C.
Readout: AUC (µg·h/mL)
Only the number, expressed in µg·h/mL, is required.

Ask: Entry O=C(N[C@@H](Cc1ccccc1)[C@@H](O)C(=O)N1C[C@@H](O)[C@@H](O)C1)c1cc2cc(Cl)ccc2[nH]1 has what AUC?
Result: 2000

###

# Procedure text: In vitro dissolution test of Drug 2 compositions in PBS pH 6.5 (microcentrifuge method, HPLC)
# Assay type: physicochemical
# Cond: Table 4; time 10 min; PBS pH 6.5, 37° C.
Readout: AUC (ng·h/mL)
Only the number, expressed in ng·h/mL, is required.

Ask: Entry O=C(N[C@@H](Cc1ccccc1)[C@@H](O)C(=O)N1C[C@@H](O)[C@@H](O)C1)c1cc2cc(Cl)ccc2[nH]1 has what AUC?
Result: 16700

###

# Procedure text: In vitro dissolution test of Drug 2 compositions in PBS pH 6.5 (microcentrifuge method, HPLC)
# Assay type: physicochemical
# Cond: Table 4; time 20 min; PBS pH 6.5, 37° C.
# Description: For this test, 14.4 mg of the dispersion was added to a microcentrifuge tube for a total Drug 2 concentration of approximately 2000 μg/mL if all of the drug were to dissolve completely. The tube was placed in a 37° C. temperature-controlled chamber, and 1.8 mL PBS as pH 6.5 and 290 mOsm/kg was added. […] The resulting supernatant solution was then sampled and diluted 1:6 (by volume) with methanol and then analyzed by high-performance liquid chromatography (HPLC). […]
Readout: AUC (ng·h/mL)
Only the number, expressed in ng·h/mL, is required.

Ask: Entry O=C(N[C@@H](Cc1ccccc1)[C@@H](O)C(=O)N1C[C@@H](O)[C@@H](O)C1)c1cc2cc(Cl)ccc2[nH]1 [Example C4] has what AUC?
Result: 36700

###

# Procedure text: In vitro dissolution test of Drug 2 compositions in PBS pH 6.5 (microcentrifuge method, HPLC)
# Format: physicochemical
# Cond: Table 5; AUC90 according to the text; PBS pH 6.5
Readout: AUC (µg·h/mL)
Only the number, expressed in µg·h/mL, is required.

Ask: Entry O=C(N[C@@H](Cc1ccccc1)[C@@H](O)C(=O)N1C[C@@H](O)[C@@H](O)C1)c1cc2cc(Cl)ccc2[nH]1 [Example C4] has what AUC?
Result: 172
